Assay: Human plasma stability assay (Test 2)
Assay type: in vitro ADME
Settings: heparinated human plasma, 0.5 uM test compound, 37° C., up to 120 minutes; read-out: Test 2 T½
Item-by-item account of half-life at 0.5 uM

- CCCCC[C@H](O)CC[C@@H]1[C@H]2Cc3cccc(OCC(=O)NCCO)c3C[C@H]2C[C@H]1O: > 1 h
- CCCCC[C@H](O)CC[C@@H]1[C@H]2Cc3cccc(OCC(=O)OCC(C)(C)C)c3C[C@H]2C[C@H]1O: 0.25 to 0.5 h
- CCCCC[C@H](O)CC[C@@H]1[C@H]2Cc3cccc(OCC(=O)O[C@H](C)C(C)C)c3C[C@H]2C[C@H]1O: 0.517 to 1 h
- CCCCC[C@H](O)CC[C@@H]1[C@H]2Cc3cccc(OCC(=O)OC(C)C(C)(C)C)c3C[C@H]2C[C@H]1O (stereo partly shown): > 1 h

Next up:
[Q] I have this compound here, "CCCCC[C@H](O)CC[C@@H]1[C@H]2Cc3cccc(OCC(=O)NCC(F)(F)C(F)(F)F)c3C[C@H]2C[C@H]1O" , and I need its recorded half-life at 0.5 uM.
[A] > 1 h

----------
Item-by-item account of half-life at 0.5 uM
Assay: Human plasma stability assay (Test 2)
Type: in vitro ADME
Conditions: heparinated human plasma, 0.5 uM test compound, 37° C., up to 120 minutes; read-out: Test 2 T½

# annotated cases, reported half-life at 0.5 uM shown
• CCCCC[C@H](O)CC[C@@H]1[C@H]2Cc3cccc(OCC(=O)OC)c3C[C@H]2C[C@H]1OC(=O)CCCC = > 60 min
• CCCCC[C@H](O)CC[C@@H]1[C@H]2Cc3cccc(OCC(=O)O[C@@H](C)CC)c3C[C@H]2C[C@H]1O = 15 to 30 min
• CCCCC[C@H](O)CC[C@@H]1[C@H]2Cc3cccc(OCC(=O)N(C)CC(=O)OC)c3C[C@H]2C[C@H]1O = > 60 min
• CCCCC[C@H](O)CC[C@@H]1[C@H]2Cc3cccc(OCC(=O)O[C@H](C)C(=O)OC)c3C[C@H]2C[C@H]1O = < 15 min
• CCCCC[C@H](O)CC[C@@H]1[C@H]2Cc3cccc(OCC(=O)OC)c3C[C@H]2C[C@H]1OC(C)=O = 15 to 30 min
• CCCCC[C@H](O)CC[C@@H]1[C@H]2Cc3cccc(OCC(=O)NCC(F)(F)F)c3C[C@H]2C[C@H]1O = > 60 min

[Q] I have this compound here, "CCCCC[C@H](O)CC[C@@H]1[C@H]2Cc3cccc(OCC(=O)NCC4CC4)c3C[C@H]2C[C@H]1O" , and I need its recorded half-life at 0.5 uM.
[A] > 60 min

[Q] Similarly, "CCCCC[C@H](O)CC[C@@H]1[C@H]2Cc3cccc(OCC(=O)OC)c3C[C@H]2C[C@H]1OC(=O)CCC(=O)OCC" ?
[A] > 60 min

----------
Item-by-item account of half-life at 0.5 uM
Assay: Human plasma stability assay (Test 2)
Assay type: in vitro ADME
Settings: heparinated human plasma, 0.5 uM test compound, 37° C., up to 120 minutes; read-out: Test 2 T½

• CCCCC[C@H](O)CC[C@@H]1[C@H]2Cc3cccc(OCC(=O)O[C@H](C)CC)c3C[C@H]2C[C@H]1O = 0.517 to 1 h
• CCCCC[C@H](O)CC[C@@H]1[C@H]2Cc3cccc(OCC(=O)NCC(=O)OC)c3C[C@H]2C[C@H]1O = > 1 h

Next up:
[Q] I have this compound here, CCCCC[C@H](O)CC[C@@H]1[C@H]2Cc3cccc(OCC(=O)OC(C)C(C)C)c3C[C@H]2C[C@H]1O (stereo partly drawn) , and I need its recorded half-life at 0.5 uM.
[A] 0.517 to 1 h

----------
Experiment: Human skin homogenate stability assay (Test 3)
Type: in vitro ADME
Settings: 0.5 uM test compound, 37° C., up to 45 minutes, pH 7.4, NADPH generating system, read-out: Test 3 T½
observable: half-life at 0.5 uM

# annotated cases, reported half-life at 0.5 uM shown
* CCCCC[C@H](O)CC[C@@H]1[C@H]2Cc3cccc(OCC(=O)OC(C)C)c3C[C@H]2C[C@H]1O [Compound 20] | < 15 min
* CCCCC[C@H](O)CC[C@@H]1[C@H]2Cc3cccc(OCC(=O)OC)c3C[C@H]2C[C@H]1OC(=O)CCCC [Compound 22] | > 60 min

Next up:
[Q] I have this compound here, CCCCC[C@H](O)CC[C@@H]1[C@H]2Cc3cccc(OCC(=O)O[C@H](C)CC)c3C[C@H]2C[C@H]1O [Compound 60] , and I need its recorded half-life at 0.5 uM.
[A] 31 to 60 min

----------
Experiment: Human hepatocyte stability assay (Test 4)
Type: in vitro ADME
Conditions: cryopreserved human hepatocytes; human hepatocytes 0.5 million cells/mL, 0.5 uM test compound, 37° C., up to 240 minutes; read-out: Test 4 T½
observable: half-life at 0.5 uM

# annotated cases, reported half-life at 0.5 uM shown
* CCCCC[C@H](O)CC[C@@H]1[C@H]2Cc3cccc(OCC(=O)NCC(F)(F)F)c3C[C@H]2C[C@H]1O | < 15 min
* CCCCC[C@H](O)CC[C@@H]1[C@H]2Cc3cccc(OCC(=O)NCCO)c3C[C@H]2C[C@H]1O | 15 to 30 min

[Q] I have this compound here, "CCCCC[C@H](O)CC[C@@H]1[C@H]2Cc3cccc(OCC(=O)N(C)CC(=O)OC)c3C[C@H]2C[C@H]1O" , and I need its recorded half-life at 0.5 uM.
[A] < 15 min

[Q] Similarly, "CCCCC[C@H](O)CC[C@@H]1[C@H]2Cc3cccc(OCC(=O)NCC4CC4)c3C[C@H]2C[C@H]1O" ?
[A] 31 to 60 min

----------
Item-by-item account of half-life at 0.5 uM
Experiment: Human liver microsomal stability assay (Test 1)
Assay type: in vitro ADME
Conditions: human liver microsomes, 0.5 uM test compound, 37° C., up to 45 minutes, pH 7.4, NADPH generating system; read-out: Test 1 T½
Method: (Test 1) Human liver microsomal stability assay was conducted by incubating 0.5 uM test compounds at 37° C. for up to 45 minutes in 50 mM of potassium phosphate buffer (pH 7.4) containing 0.5 mg of microsomal protein and 50 µL of NADPH generating system (7.8 mg of glucose 6-phosphate, 1.7 mg of NADPH and 6 U of glucose 6-phosphate dehydrogenase per mL in 2% w/v of sodium bicarbonate). […] After incubation, the samples were analyzed by LC-MS/MS. […]

# annotated cases, reported half-life at 0.5 uM shown
• CCCCC[C@H](O)CC[C@@H]1[C@H]2Cc3cccc(OCC(=O)OC)c3C[C@H]2C[C@H]1O [Compound 15] = < 15 min
• CCCCC[C@H](O)CC[C@@H]1[C@H]2Cc3cccc(OCC(=O)OCCOC)c3C[C@H]2C[C@H]1O [Compound 10] = < 15 min
• CCCCC[C@H](O)CC[C@@H]1[C@H]2Cc3cccc(OCC(=O)NCCO)c3C[C@H]2C[C@H]1O [Compound 7] = 15 to 30 min

[Q] I have this compound here, CCCCC[C@H](O)CC[C@@H]1[C@H]2Cc3cccc(OCC(=O)NCCN)c3C[C@H]2C[C@H]1O [Compound 8] , and I need its recorded half-life at 0.5 uM.
[A] 31 to 60 min

[Q] Similarly, CCCCC[C@H](O)CC[C@@H]1[C@H]2Cc3cccc(OCC(=O)OC)c3C[C@H]2C[C@H]1OC(=O)OCC [Compound 25] ?
[A] < 15 min

[Q] Similarly, CCCCC[C@H](O)CC[C@@H]1[C@H]2Cc3cccc(OCC(=O)OC4CCOC4)c3C[C@H]2C[C@H]1O (stereo partly shown) [Compound 5] ?
[A] < 15 min

[Q] Similarly, CCCCC[C@H](O)CC[C@@H]1[C@H]2Cc3cccc(OCC(=O)NCC4CC4)c3C[C@H]2C[C@H]1O [Compound 2] ?
[A] < 15 min

[Q] Similarly, CCCCC[C@H](O)CC[C@@H]1[C@H]2Cc3cccc(OCC(=O)NCC(=O)OC)c3C[C@H]2C[C@H]1O [Compound 12] ?
[A] < 15 min

[Q] Similarly, CCCCC[C@H](O)CC[C@@H]1[C@H]2Cc3cccc(OCC(=O)OC)c3C[C@H]2C[C@H]1OC(=O)CCCC [Compound 22] ?
[A] < 15 min

----------
Item-by-item account of half-life at 0.5 uM
Test: Human skin homogenate stability assay (Test 3)
Assay type: in vitro ADME
Conditions: 0.5 uM test compound, 37° C., up to 45 minutes, pH 7.4, NADPH generating system, read-out: Test 3 T½

# annotated cases, reported half-life at 0.5 uM shown
• CCCCC[C@H](O)CC[C@@H]1[C@H]2Cc3cccc(OCC(=O)OC)c3C[C@H]2C[C@H]1O [Compound 15] = < 15 min
• CCCCC[C@H](O)CC[C@@H]1[C@H]2Cc3cccc(OCC(=O)OCC(C)(C)C)c3C[C@H]2C[C@H]1O [Compound 16] = 15 to 30 min
• CCCCC[C@H](O)CC[C@@H]1[C@H]2Cc3cccc(OCC(=O)OC(C)C(C)(C)C)c3C[C@H]2C[C@H]1O (stereo partly drawn) [Compound 18] = > 60 min

[Q] I have this molecule here, CCCCC[C@H](O)CC[C@@H]1[C@H]2Cc3cccc(OCC(=O)O[C@@H](C)CC)c3C[C@H]2C[C@H]1O [Compound 61] , and I need its recorded half-life at 0.5 uM.
[A] 31 to 60 min

[Q] Similarly, CCCCC[C@H](O)CC[C@@H]1[C@H]2Cc3cccc(OCC(=O)O[C@H](C)C(C)C)c3C[C@H]2C[C@H]1O [Compound 62] ?
[A] > 60 min

[Q] Similarly, CCCCC[C@H](O)CC[C@@H]1[C@H]2Cc3cccc(OCC(=O)O[C@@H](C)C(C)C)c3C[C@H]2C[C@H]1O [Compound 63] ?
[A] 31 to 60 min

[Q] Similarly, CCCCC[C@H](O)CC[C@@H]1[C@H]2Cc3cccc(OCC(=O)OC(C)C(C)C)c3C[C@H]2C[C@H]1O (stereo partly drawn) [Compound 17] ?
[A] 15 to 30 min

[Q] Similarly, CCCCC[C@H](O)CC[C@@H]1[C@H]2Cc3cccc(OCC(=O)OC4CC5CCC4C5)c3C[C@H]2C[C@H]1O (stereo partly drawn) [Compound 19] ?
[A] 15 to 30 min

[Q] Similarly, CCCCCCCCOC(=O)COc1cccc2c1C[C@H]1C[C@@H](O)[C@H](CC[C@@H](O)CCCCC)[C@H]1C2 [Compound 64] ?
[A] > 60 min

[Q] Similarly, CCCCC[C@H](O)CC[C@@H]1[C@H]2Cc3cccc(OCC(=O)NCC(F)(F)F)c3C[C@H]2C[C@H]1O [Compound 14] ?
[A] > 60 min

[Q] Similarly, CCCCC[C@H](O)CC[C@@H]1[C@H]2Cc3cccc(OCC(=O)OC)c3C[C@H]2C[C@H]1OC(C)=O [Compound 26] ?
[A] 15 to 30 min

[Q] Similarly, CCCCC[C@H](O)CC[C@@H]1[C@H]2Cc3cccc(OCC(=O)OC)c3C[C@H]2C[C@H]1OC(=O)OCC [Compound 25] ?
[A] 31 to 60 min
